Cited source: paper PMC4071600

Biological target: Na^+/K^+-ATPase
Construct: gene ATP1A1; with Sodium/potassium-transporting ATPase subunit beta-1
Assay: Na+/K+-ATPase inhibition assay (by reference)
Format: biochemical
readout-name: IC50 (µM)

# smiles-structure, IC50, µM
data = [
    ("CCCCCCCCCCC[C@H](O)[C@H](C)NC(C)=O", 118),
]

a = CCCCCCCCCCC[C@H](O)CN
b = CCCCCCCC/C=C/C[C@H](O)[C@H](C)N
Ask: I'm curious, which of these has a smaller IC50 number: a or b ? Please respond with the label that marks your chosen entry.
Reply: b
(b: 78.4 µM, a: 130 µM)

###

Molecular target: Na^+/K^+-ATPase
Construct: gene ATP1A1; with Sodium/potassium-transporting ATPase subunit beta-1
Test: Na+/K+-ATPase inhibition assay (by reference)
Format: biochemical
readout-name: IC50 (µM)

I = CCCCCCCCCCC[C@H](O)[C@H](C)N
II = CC/C=C\C/C=C\CC/C=C/C=C/[C@H](O)[C@H](C)N
III = CCCCCCCC/C=C/C[C@H](O)CN
Ask: Rank the listed compounds by IC50, largest first. Arrange the labels as the request states and list them.
Reply: III, II, I

P = CCCCCCCCCCC[C@H](OC(=O)c1ccccc1)[C@H](C)NC(=O)c1ccccc1
Q = CCCCCCCCC/C=C/[C@H](O)[C@H](C)N [compound 1, (E)-2-aminotetradec-4-en-3-ol]
Ask: I'm curious, which of these has a smaller IC50 number: P or Q ? Please respond with the label that marks your chosen entry.
Reply: Q
(Q: 62 µM, P: 108 µM)

###

Target: Na^+/K^+-ATPase
Construct: gene ATP1A1; with Sodium/potassium-transporting ATPase subunit beta-1
Experiment: Na+/K+-ATPase inhibition assay (by reference)
Format: biochemical
Excerpt: Na+/K+-ATPase inhibition assay (by reference) on Na^+/K^+-ATPase
readout-name: IC50

# molecule, reported-measurement
rows = [
    ("CC/C=C\\C/C=C\\CC/C=C/C=C/[C@H](O)[C@H](C)NCC(=O)O [compound 7, Pseudoaminol G]", "> 200 µM"),
    ("CCCCCCCCC/C=C/[C@H](O)[C@H](C)NCC(=O)O [compound 6, Pseudoaminol F]", "> 200 µM"),
]

Observed IC50, Na^+/K^+-ATPase, CCCCCCCCC/C=C/[C@@H]1OC(=O)N[C@H]1C [compound 8, Compound 8] : 71.4 µM
